# studySystem: fatty acyl CoA:-cholesterol acyl transferase (ACAT) (Rattus norvegicus)
# Construct: The supernatant, containing the microsomal fraction, served as the source of the cholesterol-esterifying enzyme; from tissue; host or cells: rat adrenals, 1000 x g supernatant containing the microsomal fraction
# Sequence (O70536 whole entry): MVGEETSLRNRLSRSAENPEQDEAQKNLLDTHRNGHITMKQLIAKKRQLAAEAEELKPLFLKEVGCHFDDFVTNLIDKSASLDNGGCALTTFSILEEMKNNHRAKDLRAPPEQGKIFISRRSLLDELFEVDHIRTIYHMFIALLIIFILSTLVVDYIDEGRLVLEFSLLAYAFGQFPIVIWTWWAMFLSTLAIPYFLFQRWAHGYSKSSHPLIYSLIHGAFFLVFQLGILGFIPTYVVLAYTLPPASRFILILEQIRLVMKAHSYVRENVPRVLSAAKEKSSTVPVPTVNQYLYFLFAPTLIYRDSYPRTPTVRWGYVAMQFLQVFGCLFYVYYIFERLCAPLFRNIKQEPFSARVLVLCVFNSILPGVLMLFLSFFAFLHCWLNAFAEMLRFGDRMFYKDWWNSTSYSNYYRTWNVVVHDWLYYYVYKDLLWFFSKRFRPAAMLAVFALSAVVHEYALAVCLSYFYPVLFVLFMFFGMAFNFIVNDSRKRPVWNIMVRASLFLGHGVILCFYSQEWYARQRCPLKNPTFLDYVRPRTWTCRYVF
# measurementDescription: Inhibition of enzymatic esterification of cholesterol (ACAT inhibition), rat adrenal supernatant
# Format: biochemical
# assayContext: final concentration 5.2 μg./ml., 37° C., 30 minutes
Quick reference for inhibition at 5.2 µg/mL among some compounds
Answer by giving the amount and then stating its unit.

                                   compound  testresult
0  O=C(c1c(F)c(F)c(F)c(F)c1F)N1CCN(c2cnccn2)CC1       31.2%
1  CC1CN(C(=O)Cc2ccccc2)CCN1c1ccc(Cl)cc1 (stereo not shown)       88.1%
2    O=C(Cc1ccccc1)N1CCN(c2cnc3ccccc3n2)CC1       40.1%
3  O=C(Cc1ccc([N+](=O)[O-])cc1)N1CCN(c2cnccn2)CC1       36.4%
4  O=C(Cc1ccc(Cl)c(Cl)c1)N1CCN(c2cnccn2)CC1       38.3%
5  O=C(CCCCCc1ccc(Cl)cc1)N1CCN(c2cnccn2)CC1       68.9%
6  O=C(O)c1ccc(NC(=O)N2CCN(c3cnccn3)CC2)cc1       30.6%
7  CCOC(=O)c1ccc(NC(=O)N2CCN(c3cnccn3)CC2)cc1       42.2%
8  CCCCCCCC(=O)N1CCN(c2cnccn2)CC1 [1-octanoyl-4-(2-pyrazinyl)piperazine, 1-Octanoyl-4-(2-pyrazinyl)piperazine]       33.6%

The record that follows has no inhibition at 5.2 µg/mL shown yet.
Consider O=C(Cc1ccccc1)N1CCN(c2ccc(Cl)cc2)CC1 . Its measured inhibition at 5.2 µg/mL is 73.3%

The reported measurements were obtained from patent US4439606A.
